Each recorded value in this set is attributed to ChEMBL document CHEMBL4033635.

Assay Overview: Inhibition of pig cerebral cortex Na+/K+-ATPase
Design: species or system Sus scrofa
Assay Metric: IC50 (nM)
Numbers only, in nM.

Consider the molecule CC[C@H]1C=CCC[C@@]2(C[C@@H]3CC[C@@H]4[C@H](C(=O)OCCCCCCCCCCCCCCCC(=O)N(CCCN)CCCN)[C@]5(CCC[C@@H](C)O5)NC(=N2)N34)O1 and give its measured IC50.
2000

---

Target Of Assay: Neuronal acetylcholine receptor subunit alpha-7 (Homo sapiens, UniProt P36544)
Sequence (P36544 whole entry): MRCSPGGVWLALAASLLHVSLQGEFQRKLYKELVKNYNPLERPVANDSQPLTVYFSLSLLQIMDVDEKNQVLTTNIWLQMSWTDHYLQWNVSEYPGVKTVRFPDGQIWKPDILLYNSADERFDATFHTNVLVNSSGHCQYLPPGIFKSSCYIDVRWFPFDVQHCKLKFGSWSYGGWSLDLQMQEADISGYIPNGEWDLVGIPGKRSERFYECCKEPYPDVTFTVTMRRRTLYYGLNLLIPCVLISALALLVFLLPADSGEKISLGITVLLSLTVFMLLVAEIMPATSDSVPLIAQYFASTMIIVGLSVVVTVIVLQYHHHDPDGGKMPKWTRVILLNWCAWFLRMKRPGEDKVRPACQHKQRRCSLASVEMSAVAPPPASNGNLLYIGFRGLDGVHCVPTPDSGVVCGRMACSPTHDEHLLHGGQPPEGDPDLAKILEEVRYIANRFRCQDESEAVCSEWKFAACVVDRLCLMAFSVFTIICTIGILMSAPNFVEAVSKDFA
Assay Overview: Displacemet of [125I]-alphaBgt from human alpha7 nAChR expressed in rat GH4C1 cells preincubated for 2 to 3 hrs followed by [125I]-alphaBgt addition measured after 5 mins
pKi: −log10 of the molar value.
For each of the compounds below, state its pKi.

CCC[C@@H]1CCC[C@@]2(N=C3N[C@]4(CCC=C[C@H](CC)O4)C[C@@H]4CC[C@H]([C@@H]2C(=O)OCCCCCCCCCCCCCCCC(=O)N(CCCN)CCCCN)N34)O1; 3.51 to 5.10

Field: next compound
Give the reported pKi for CC/C=C/[C@H]1CC[C@@]2(C[C@@H]3CC[C@@H]4[C@H](C(=O)OCCCCCCCCCCCCCCC(O)C(=O)NCCCN)[C@]5(CCC[C@@H](C)O5)N=C(N2)N34)O1 (some centres not stated) (system: Neuronal acetylcholine receptor subunit alpha-7 (Homo sapiens, UniProt P36544)).
3.51 to 5.10
